B1: PBXIP1 (parent)
chain: FGEDGIFRHDRLRFRDFVDALEDS

- Variants of: B1
- Protocol: protein stability index of a GFP-peptide fusion (GPS, HEK-293T) (PSI 1-6); higher = more stable;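 note: lentivirally expressed fusions sorted by FACS into six bins by GFP to DsRed ratio, PSI derived from sequencing read proportions per bin multiplied by bin number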
- Measurement Context: c terminus: a fixed tail appended
Measured Metric: protein stability index
Please give the numeric answer without any surrounding text.

Input line: Field request: protein stability index | item: FGEDGIFRHDRLRFRDFRDALEDS [V18R]
Output line: 3.05

Input line: Field request: protein stability index | item: FGEDGIFRHDRLRFRDFVDADEDS [L21D]
Output line: 3.68

Input line: Field request: protein stability index | item: FGEDGIFRHDRLRFRDFVAALEDS [D19A]
Output line: 2.59

Input line: Field request: protein stability index | item: FGEDGMFRHDRLRFRDFVDALEDS [I6M]
Output line: 1.97

Input line: Field request: protein stability index | item: FGEDGIFAHDRLRFRDFVDALEDS [R8A]
Output line: 3.29

Input line: Field request: protein stability index | item: FGEDGIFRHDRLRFRDFHDALEDS [V18H]
Output line: 2.53

Input line: Field request: protein stability index | item: FGEDGIFRHDRLRFRDYVDALEDS [F17Y]
Output line: 2.97

Input line: Field request: protein stability index | item: FGEDGIFRHDRLRFRDFVGALEDS [D19G]
Output line: 2.37

Input line: Field request: protein stability index | item: FGEDGIFRHDALRFRDFVDALEDS [R11A]
Output line: 2.57

Input line: Field request: protein stability index | item: FGEDGIFRHDWLRFRDFVDALEDS [R11W]
Output line: 2.49

Input line: Field request: protein stability index | item: FGEDGIFRHCRLRFRDFVDALEDS [D10C]
Output line: 1.85

// data source = the supplement of paper PMC10567573
